Where do these numbers come from? They come from ChEMBL document CHEMBL4196041.

Experiment Description: Cmax in Sprague-Dawley rat at 1 mg/kg, sc administered as single dose by UPLC-MS/MS analysis
Assay type: ADME, organism-based
Design: dose 1 mg/kg, route subcutaneous
Condition: in vivo

Smiles Entry: O=C(Nc1ccc2ncsc2c1)c1ccc(OC(F)F)c(OCC2CC2)c1
Cmax: 86.2 µg/mL
--
Smiles Entry: O=C(Nc1nc2ccccc2s1)c1ccc(OC(F)F)c(OCC2CC2)c1
Cmax: 95.5 µg/mL
--
Smiles Entry: O=C(Nc1ccc2nc(S)sc2c1)c1ccc(OC(F)F)c(OCC2CC2)c1
Cmax: 114 µg/mL
--
Smiles Entry: O=C(Nc1c(Cl)cncc1Cl)c1ccc(OC(F)F)c(OCC2CC2)c1
Cmax: 109 µg/mL

----------
Experiment Description: AUC (0 to t) in Sprague-Dawley rat at 1 mg/kg, sc administered as single dose by UPLC-MS/MS analysis
Assay type: ADME, organism-based
Condition: in vivo

Molecule: O=C(Nc1c(Cl)cncc1Cl)c1ccc(OC(F)F)c(OCC2CC2)c1 [ROFLUMILAST]
Unit Abbreviation: µg·h/mL
AUC(0-t): 449
--
Molecule: O=C(Nc1ccc2ncsc2c1)c1ccc(OC(F)F)c(OCC2CC2)c1
Unit Abbreviation: µg·h/mL
AUC(0-t): 892
--
Molecule: O=C(Nc1ccc2nc(S)sc2c1)c1ccc(OC(F)F)c(OCC2CC2)c1
Unit Abbreviation: µg·h/mL
AUC(0-t): 622
--
Molecule: O=C(Nc1nc2ccccc2s1)c1ccc(OC(F)F)c(OCC2CC2)c1
Unit Abbreviation: µg·h/mL
AUC(0-t): 594

----------
Experiment Description: Half life in Wistar rat liver S9 fraction at 20 uM in presence of NADPH by HPLC-UV analysis
Assay type: ADME, subcellular
Each item that follows carries a reported half-life at 20 µM.

Smiles Entry: O=C(Nc1c(Cl)cncc1Cl)c1ccc(OC(F)F)c(OCC2CC2)c1
half-life at 20 µM / min: 12.3
//
Smiles Entry: O=C(Nc1nc2ccccc2s1)c1ccc(OC(F)F)c(OCC2CC2)c1
half-life at 20 µM / min: 42.3
//
Smiles Entry: O=C(Nc1ccc2ncsc2c1)c1ccc(OC(F)F)c(OCC2CC2)c1
half-life at 20 µM / min: 63
//
Smiles Entry: O=C(Nc1ccc2nc(S)sc2c1)c1ccc(OC(F)F)c(OCC2CC2)c1
half-life at 20 µM / min: 248

----------
Experiment Description: AUC (0 to infinity) in Sprague-Dawley rat at 1 mg/kg, sc administered as single dose by UPLC-MS/MS analysis
Assay type: ADME, organism-based
Set-up: dose 1 mg/kg, route subcutaneous, time infinity
Condition: in vivo
Endpoint: AUC(0-inf) (µg·h/mL)

Smiles Entry: O=C(Nc1ccc2ncsc2c1)c1ccc(OC(F)F)c(OCC2CC2)c1
Unit Abbreviation: µg·h/mL
Val: 1620
//
Smiles Entry: O=C(Nc1c(Cl)cncc1Cl)c1ccc(OC(F)F)c(OCC2CC2)c1
Unit Abbreviation: µg·h/mL
Val: 500
//
Smiles Entry: O=C(Nc1nc2ccccc2s1)c1ccc(OC(F)F)c(OCC2CC2)c1
Unit Abbreviation: µg·h/mL
Val: 800
//
Smiles Entry: O=C(Nc1ccc2nc(S)sc2c1)c1ccc(OC(F)F)c(OCC2CC2)c1
Unit Abbreviation: µg·h/mL
Val: 1040

----------
The following compounds each carry a recorded IC50 for 3',5'-cyclic-AMP phosphodiesterase 4B (Homo sapiens).

Smiles Entry: CCOc1ccc2nc(NC(=O)c3ccc(OC(F)F)c(OCC4CC4)c3)sc2c1
Unit Abbreviation: nM
IC50: 2.92

Smiles Entry: Cc1nc2ccc(NC(=O)c3ccc(OC(F)F)c(OCC4CC4)c3)cc2s1
Unit Abbreviation: nM
IC50: 1.26

Smiles Entry: O=C(Nc1ccc2ncsc2c1)c1ccc(OC(F)F)c(OCC2CC2)c1
Unit Abbreviation: nM
IC50: 0.68

Smiles Entry: O=C(Nc1nc2ccccc2s1)c1ccc(OC(F)F)c(OCC2CC2)c1
Unit Abbreviation: nM
IC50: 0.57

----------
Assayed Target: 3',5'-cyclic-AMP phosphodiesterase 4D (Homo sapiens, UniProt Q08499)
Sequence (Q08499 whole entry): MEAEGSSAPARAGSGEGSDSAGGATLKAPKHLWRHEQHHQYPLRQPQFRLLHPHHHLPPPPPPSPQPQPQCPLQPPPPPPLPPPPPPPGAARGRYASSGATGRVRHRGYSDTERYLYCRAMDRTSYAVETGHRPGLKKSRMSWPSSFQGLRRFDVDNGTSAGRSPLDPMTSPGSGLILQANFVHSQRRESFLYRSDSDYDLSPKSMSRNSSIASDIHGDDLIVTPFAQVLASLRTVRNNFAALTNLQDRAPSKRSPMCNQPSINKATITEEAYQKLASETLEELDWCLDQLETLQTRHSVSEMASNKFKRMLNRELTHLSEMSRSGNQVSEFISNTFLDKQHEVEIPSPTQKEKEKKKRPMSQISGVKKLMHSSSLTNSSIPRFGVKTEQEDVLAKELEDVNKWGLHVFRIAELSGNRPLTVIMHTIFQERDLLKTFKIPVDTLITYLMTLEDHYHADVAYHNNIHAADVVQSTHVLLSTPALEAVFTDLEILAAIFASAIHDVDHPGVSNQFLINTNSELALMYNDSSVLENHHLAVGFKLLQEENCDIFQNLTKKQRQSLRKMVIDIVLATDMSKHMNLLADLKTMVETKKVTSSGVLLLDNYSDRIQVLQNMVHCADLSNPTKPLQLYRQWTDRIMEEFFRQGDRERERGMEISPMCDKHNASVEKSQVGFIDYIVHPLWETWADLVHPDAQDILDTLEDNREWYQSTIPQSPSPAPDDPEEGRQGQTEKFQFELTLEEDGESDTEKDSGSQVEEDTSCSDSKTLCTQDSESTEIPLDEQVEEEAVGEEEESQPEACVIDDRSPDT

Smiles Entry: O=C(Nc1ccc2ncsc2c1)c1ccc(OC(F)F)c(OCC2CC2)c1
Assayed Target: 3',5'-cyclic-AMP phosphodiesterase 4D (Homo sapiens, UniProt Q08499)
IC50: 2.73 nM

----------
Experiment Description: Protein binding in human plasma after 5 hrs by equilibrium dialysis method
Assay type: ADME, cell-free
Condition: read-out: PPB (converted)
Each item that follows carries a reported fraction unbound at 5 h.

Smiles Entry: O=C(Nc1ccc2ncsc2c1)c1ccc(OC(F)F)c(OCC2CC2)c1
fraction unbound at 5 h: 0.0361
//
Smiles Entry: O=C(Nc1c(Cl)cncc1Cl)c1ccc(OC(F)F)c(OCC2CC2)c1
fraction unbound at 5 h: 0.0151
//
Smiles Entry: O=C(Nc1ccc2nc(S)sc2c1)c1ccc(OC(F)F)c(OCC2CC2)c1
fraction unbound at 5 h: 0.463

----------
Each item that follows carries a reported Tmax.
Experiment Description: Tmax in Sprague-Dawley rat at 1 mg/kg, sc administered as single dose by UPLC-MS/MS analysis
Assay type: ADME, organism-based
Condition: in vivo
Endpoint: Tmax (h)

Smiles Entry: O=C(Nc1nc2ccccc2s1)c1ccc(OC(F)F)c(OCC2CC2)c1
Val: 1
//
Smiles Entry: O=C(Nc1c(Cl)cncc1Cl)c1ccc(OC(F)F)c(OCC2CC2)c1
Val: 1
//
Smiles Entry: O=C(Nc1ccc2ncsc2c1)c1ccc(OC(F)F)c(OCC2CC2)c1
Val: 2
//
Smiles Entry: O=C(Nc1ccc2nc(S)sc2c1)c1ccc(OC(F)F)c(OCC2CC2)c1
Val: 2
